system: U2OS; assay: cell count relative to DMSO control (panel A, nuclei/RNA/PMG/mitochondria stain) (fraction of control); higher = more cells (less toxicity); conditions: 10 µM; treatment time: 24 h
Decision: cell count compared against 0.6; not below it gives t, below it gives f.

Can COc1cc(-n2c(=S)[nH]c3ccccc3c2=O)c(Cl)cc1Cl [mdivi-1] be said to have cell count at or above 0.6?
t

Can COc1cc([C@@H]2c3cc4c(cc3[C@H](O)[C@H]3COC(=O)[C@@H]23)OCO4)cc(OC)c1OC [picropodophyllin] be said to have cell count at or above 0.6?
t

Can CCCCCCCC(=O)N[C@H](CN1CCCC1)[C@H](O)c1ccc2c(c1)OCCO2 [eliglustat] be said to have cell count at or above 0.6?
t

Can CC[C@]1(O)C[C@H]2CN(CCc3c([nH]c4ccccc34)[C@@](C(=O)OC)(c3cc4c(cc3OC)N(C=O)[C@H]3[C@@](O)(C(=O)OC)[C@H](OC(C)=O)[C@]5(CC)C=CCN6CC[C@]43[C@@H]65)C2)C1 [vincristine] be said to have cell count at or above 0.6?
f

Can COc1ccc(C2CNC(=O)C2)cc1OC1CCCC1 (stereo not drawn) [rolipram] be said to have cell count at or above 0.6?
t

Can CCOc1ccccc1-n1c(C(C)N2CCN(C(=O)COc3ccc(Cl)cc3)CC2)nc2ccccc2c1=O (stereo not drawn) [erastin] be said to have cell count at or above 0.6?
t

Can CC(NC(=O)c1ccccc1/N=C/c1c(O)ccc2ccccc12)c1ccccc1 (stereo not drawn) [sirtinol] be said to have cell count at or above 0.6?
f

Can COc1ccc2cc1Oc1ccc(cc1)C[C@H]1c3cc(c(OC)cc3CCN1C)Oc1c(OC)c(OC)cc3c1[C@H](C2)N(C)CC3 [tetrandrine] be said to have cell count at or above 0.6?
t

---

tested on: U2OS; assay: cell count relative to DMSO control (panel A, nuclei/RNA/PMG/mitochondria stain) (fraction of control); higher = more cells (less toxicity); conditions: 0.15625 µM; treatment time: 24 h
So I've got a bunch of compounds here, and I need their cell count values.
// response body must contain only the number

Input `Cc1ccc(S(=O)(=O)c2ccc([N+](=O)[O-])o2)cc1` . Output cell count: 1.02

Input `O=C1c2c(O)ccc(O)c2C(=O)c2c(NCCNCCO)ccc(NCCNCCO)c21` . Output cell count: 0.887

Input `NS(=O)(=O)C#Cc1ccccc1` . Output cell count: 1.06

Input `C=CCNC1=C2C[C@@H](C)C[C@H](OC)[C@H](O)[C@@H](C)/C=C(\C)[C@H](OC(N)=O)[C@@H](OC)/C=C\C=C(/C)C(=O)NC(=CC1=O)C2=O` . Output cell count: 0.976

Input `COc1cccc2c1C(=O)c1c(O)c3c(c(O)c1C2=O)C[C@@](O)(C(=O)CO)C[C@@H]3O[C@H]1C[C@H](N)[C@H](O)[C@H](C)O1` . Output cell count: 1.03

Input `CC(C)n1nc(-c2ccc3oc(N)nc3c2)c2c(N)ncnc21` . Output cell count: 0.584

---

test system: U2OS; test: cell count relative to DMSO control (panel A, nuclei/RNA/PMG/mitochondria stain) (fraction of control); higher = more cells (less toxicity); conditions: 0.625 µM; treatment time: 24 h
property-label: cell count
// response body must contain only the number

Input `COc1ccc(C[C@H](N)C(=O)N[C@H]2[C@@H](O)[C@H](n3cnc4c(N(C)C)ncnc43)O[C@@H]2CO)cc1` . Output cell count: 1.06

Input `Cc1ccc(S(=O)(=O)c2ccc([N+](=O)[O-])o2)cc1` . Output cell count: 1.04

Input `CN(C)[C@@H]1C(O)=C(C(N)=O)C(=O)[C@@]2(O)C(O)=C3C(=O)c4c(O)ccc(Cl)c4[C@@](C)(O)[C@H]3C[C@@H]12` . Output cell count: 1.07

Input COc1ccc(C2CNC(=O)C2)cc1OC1CCCC1 (stereo not given) . Output cell count: 1.07

Input NCCCCC(N)C(=O)NC(CCCCN)C(=O)NC(Cc1c[nH]c2ccccc12)C(=O)NC(Cc1c[nH]c2ccccc12)C(=O)NC(CCCCN)C(=O)NC(CCCCN)C(=O)NC(Cc1c[nH]c2ccccc12)C(=O)NC(C(=O)NC(CCCCN)C(N)=O)C(c1ccccc1)c1ccccc1 (stereo not given) . Output cell count: 0.967

Input `CC[C@H]1CN2CCc3cc(OC)c(OC)cc3[C@@H]2C[C@@H]1C[C@H]1NCCc2cc(OC)c(OC)cc21` . Output cell count: 1.01

Input `Nc1c2ccccc2nc2ccccc12` . Output cell count: 1.12

Input `C[C@H]1CCC/C=C/[C@@H]2C[C@H](O)C[C@H]2[C@H](O)/C=C/C(=O)O1` . Output cell count: 0.545

Input `O=C(CCCCCCC(=O)Nc1ccccc1)NO` . Output cell count: 1.1

Input `CC(C=CC(=O)NO)=C[C@@H](C)C(=O)c1ccc(N(C)C)cc1` . Output cell count: 0.737

Input `CC[C@]1(O)C[C@H]2CN(CCc3c([nH]c4ccccc34)[C@@](C(=O)OC)(c3cc4c(cc3OC)N(C=O)[C@H]3[C@@](O)(C(=O)OC)[C@H](OC(C)=O)[C@]5(CC)C=CCN6CC[C@]43[C@@H]65)C2)C1` . Output cell count: 0.506

Input `CCc1c2c(nc3ccc(OC(=O)N4CCC(N5CCCCC5)CC4)cc13)-c1cc3c(c(=O)n1C2)COC(=O)[C@]3(O)CC` . Output cell count: 0.795

Input `Cn1c(CCCC(=O)O)nc2cc(N(CCCl)CCCl)ccc21` . Output cell count: 0.814

Input OC(CS)C(O)CS (stereo not given) . Output cell count: 0.785

Input `O=NN(CCCl)C(=O)NC1CCCCC1` . Output cell count: 0.819

Values compiled from the supplement of paper PMC9780213.
